TARGET: mGlyT-1b (Mus musculus, UniProt P28571)
Sequence (P28571 1-651 isoform P28571-2): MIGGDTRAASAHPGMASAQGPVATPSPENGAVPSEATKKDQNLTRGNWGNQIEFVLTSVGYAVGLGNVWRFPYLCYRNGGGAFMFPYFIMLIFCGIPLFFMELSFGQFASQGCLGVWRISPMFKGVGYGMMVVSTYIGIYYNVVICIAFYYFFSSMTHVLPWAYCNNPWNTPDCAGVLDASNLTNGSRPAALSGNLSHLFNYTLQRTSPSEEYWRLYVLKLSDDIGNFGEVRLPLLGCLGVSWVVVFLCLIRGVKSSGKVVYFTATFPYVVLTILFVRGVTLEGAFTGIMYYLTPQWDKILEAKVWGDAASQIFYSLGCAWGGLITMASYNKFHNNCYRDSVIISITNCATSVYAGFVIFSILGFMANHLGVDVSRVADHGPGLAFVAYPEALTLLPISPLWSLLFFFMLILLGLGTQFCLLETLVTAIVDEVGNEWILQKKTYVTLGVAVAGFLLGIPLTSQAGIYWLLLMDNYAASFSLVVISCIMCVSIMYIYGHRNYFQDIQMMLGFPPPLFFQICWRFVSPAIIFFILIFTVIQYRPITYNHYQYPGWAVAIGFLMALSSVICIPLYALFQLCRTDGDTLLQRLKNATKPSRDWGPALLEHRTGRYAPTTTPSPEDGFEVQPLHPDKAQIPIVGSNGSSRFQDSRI
TEST DESCRIPTION: Glycine uptake inhibition assay (mGlyT-1b)
CONDITION SET: [3H]-glycine uptake, Flp-in-CHO cells stably transfected with mGlyT1b cDNA, 20 min preincubation at 22° C.
pIC50: −log10 of the molar value. Where a name gives a salt, the structure may show the parent alone.
Threshold rule: pIC50 greater than or equal to 7 is fulfilled; below that, not fulfilled.

Lookup: Reported pIC50 at or above 7? COc1cc(C(F)(F)F)cc(SC)c1C(=O)NC1(c2ccccc2)CCC2(CC2)N(C)C1 (racemic) [Example 105]
Found: fulfilled

Lookup: Threshold query (pIC50 >= 7) on CN1CCC[C@@](NC(=O)c2ccc(C(F)(F)F)cc2C2CC2)(c2ccccc2)C1 (stereo in doubt) [Example 57, hydrochloride]
Found: fulfilled

Lookup: Determine whether this compound has pIC50 no lower than 7: CCc1cc(C(F)(F)F)ccc1C(=O)NC1(c2ccccc2)CCCN(C)C1 (single isomer, unassigned) [Example 115, hydrochloride]
Found: fulfilled

Lookup: Given the entry CCc1cc(C(F)(F)F)ccc1C(=O)NC1(c2ccncc2)CCCN(C)C1 (racemic) [Example 72, hydrochloride] , answer whether its pIC50 meets or surpasses 7.
Found: fulfilled

Lookup: Does the compound CC(C)c1cc(C(F)(F)F)ccc1C(=O)NC1(c2ccccc2)CCCN(C)C1 (racemic) [Example 70, hydrochloride] have recorded pIC50 that is 7 or more?
Found: not fulfilled

Lookup: Does pIC50 meet or surpass 7 for COc1cc(C(F)(F)F)cc(SC)c1C(=O)NC1(c2cc(F)ccc2F)CCCN(C)C1 (single isomer, unassigned) [Example 113] ?
Found: fulfilled

Lookup: Assess whether reported pIC50 for CN1CCCC(NC(=O)c2ccc(C(F)(F)F)cc2C2CC2)(c2ccccc2)C1 (racemic) [Example 13] sits at 7 or higher.
Found: fulfilled

Lookup: State whether the measured pIC50 reaches 7, counting equality as reaching it, for COc1cc(C(F)(F)F)cc(SC)c1C(=O)NC1(c2ccccc2)CC(O)CN(C)C1 (racemic) [Example 51]
Found: fulfilled

Lookup: Item COc1cc(C(F)(F)F)cc(SC)c1C(=O)NC1(c2ccccc2F)CCCN(C)C1 (single isomer, unassigned) [Example 111] with pIC50 of 7 or above?
Found: fulfilled

Lookup: Is pIC50 at least 7? Consider COc1cc(C(F)(F)F)cc(SC)c1C(=O)NC1(c2cccnc2)CCCN(C)C1 (racemic) [Example 73]
Found: fulfilled

Lookup: Has COc1cc(C(F)(F)F)cc(OC)c1C(=O)NC1(c2ccccc2)CCCN(C)C1 (racemic) [Example 80] a recorded pIC50 greater than or equal to 7?
Found: not fulfilled

Lookup: Has COc1cc(C(F)(F)F)cc(SC)c1C(=O)NC1(c2ccc(F)c(C)c2)CCCN(C)C1 (racemic) [Example 97] a recorded pIC50 greater than or equal to 7?
Found: not fulfilled
